meta.source: patent US20100029657A1

- Experimental Target: Flag/GST-tagged recombinant human B-Raf (Homo sapiens, UniProt P15056)
- Construct: Flag; GST; made in house; host or cells: Sf9 insect cells (B-Raf); E. coli (MEK1-GST)
- Sequence (P15056 whole entry): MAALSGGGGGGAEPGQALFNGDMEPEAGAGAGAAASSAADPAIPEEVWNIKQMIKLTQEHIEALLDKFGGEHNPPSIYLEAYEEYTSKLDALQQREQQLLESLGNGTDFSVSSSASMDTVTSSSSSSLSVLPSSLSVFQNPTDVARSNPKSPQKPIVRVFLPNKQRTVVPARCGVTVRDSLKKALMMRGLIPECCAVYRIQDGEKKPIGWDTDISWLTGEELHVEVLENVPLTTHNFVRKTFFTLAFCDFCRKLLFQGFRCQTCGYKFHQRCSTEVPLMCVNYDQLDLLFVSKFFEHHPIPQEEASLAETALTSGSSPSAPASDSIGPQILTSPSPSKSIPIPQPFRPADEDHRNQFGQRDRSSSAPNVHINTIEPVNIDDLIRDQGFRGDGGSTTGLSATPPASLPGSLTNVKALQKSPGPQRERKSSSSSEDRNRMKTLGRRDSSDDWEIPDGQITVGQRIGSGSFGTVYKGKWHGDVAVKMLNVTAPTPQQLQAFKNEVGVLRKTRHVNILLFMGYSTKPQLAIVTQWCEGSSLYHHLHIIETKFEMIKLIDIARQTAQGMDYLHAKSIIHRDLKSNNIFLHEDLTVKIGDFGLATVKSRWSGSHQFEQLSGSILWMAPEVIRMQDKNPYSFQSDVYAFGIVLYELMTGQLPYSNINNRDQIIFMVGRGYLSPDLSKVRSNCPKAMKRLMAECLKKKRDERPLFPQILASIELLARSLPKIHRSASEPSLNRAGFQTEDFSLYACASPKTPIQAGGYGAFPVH
- Assay: B-Raf kinase assay (phosphorylation of GST-MEK1, phospho-MEK1 antibody/Europium detection)
- Assay type: biochemical
- Condition Notes: Mean IC50 (uM), B-Raf IC50 Data for compounds of Formula A
Catalogue of compounds with associated IC50
Only the number, expressed in µM, is required.

Known IC50 results, listed for orientation:
- Compound: "CCOC(=O)N1C2CCC1CC(c1ccnc3c(-c4ccc(C(F)(F)F)c5[nH]ncc45)c(-c4ccncc4)nn13)C2 (stereo not shown)"
  Experimental Target: "Flag/GST-tagged recombinant human B-Raf (Homo sapiens, UniProt P15056)"
  IC50 (µM): 0.004
- Compound: "COc1cc(-c2c(-c3ccncc3)nn3c(-c4ccc(N5CC6CCC(C5)N6C)cc4)ccnc23)ccc1Cl"
  Experimental Target: "Flag/GST-tagged recombinant human B-Raf (Homo sapiens, UniProt P15056)"
  IC50 (µM): 0.01

Next compound, please.
Value of measured IC50 for the entry CCOC(=O)N1C2CCC1CC(c1ccnc3c(-c4ccc(Cl)c5[nH]ncc45)c(-c4ccncc4)nn13)C2 (stereo not shown) : 0.0003
